Documented TGI across a set of compounds
- Tested on: MCF7 breast
- METHOD_SUMMARY: NCI tumour cell line growth inhibition, 48 h
Field format: number, assumed µM, no unit text.

                                   compound  test_value
0  N[C@@H]1CCN(c2c(F)cc3c(=O)c(C(=O)O)cn4c3c2Oc2c-4ccc3c2ccc2ccccc23)C1        3.34

Input: Suppose we examine the compound CN(C)CCNC(=O)c1cccc2c(=O)c3ccccc3oc12 ; what TGI value has been reported?
Output: 74

Input: Suppose we examine the compound O=C(NC1=C(Cl)C(=O)c2ccccc2C1=O)c1ccccc1 ; what TGI value has been reported?
Output: 39.2

Input: Suppose we examine the compound O=C(NN1C(=O)C(Cl)C1c1ccc(Cl)cc1)c1c(Cl)c(Cl)c(Cl)c(Cl)c1-c1nc2ccccc2[nH]1 (stereo not given) ; what TGI value has been reported?
Output: 34.4

====

Documented TGI across a set of molecules
- Test system: SN12C renal
- METHOD_SUMMARY: NCI tumour cell line growth inhibition, 48 h
Field format: number, assumed µM, no unit text.

Input: Suppose we examine the molecule Cc1cc(N(CC(C)Br)CC(C)Br)ccc1N=Nc1ccccc1C(=O)O (stereo not drawn) ; what TGI value has been reported?
Output: 20

Input: Suppose we examine the molecule O=C1C=CC(=O)C2C1C1(Cl)C(Cl)=C(Cl)C2(Cl)C1(Cl)Cl (stereo not drawn) ; what TGI value has been reported?
Output: 25.6

====

- System: KM12 colon
- METHOD_SUMMARY: NCI tumour cell line growth inhibition, 48 h
Documented TGI across a set of compounds

COMPOUND	TGI
O=C1/C(=C\c2ccc([N+](=O)[O-])cc2)N(S(=O)(=O)c2ccccc2)c2ncccc21	44.3 µM

We now examine a further compound.
Input: Observed TGI on KM12 colon for C=C(C)C1CCC(C(=O)O)CC1 (stereo not given) , please.
Output: > 100 µM

====

- Test system: HCT-15 colon
- METHOD_SUMMARY: NCI tumour cell line growth inhibition, 48 h
Documented TGI across a set of compounds

# example entries with known answers
>>> print(df.to_string())
                                   compound  test_value
0  COC(=O)[C@@H]1C[C@H]2OC(=O)CC[C@]2(C)O[C@H]1[C@H]1O[C@@](C)(O)CCC[C@H]1C     > 50 µM
1  CC1(c2cccc(C3CC4(CCC3=O)OCCCCO4)c2)OCCO1 (stereo not given)    > 100 µM
2       CN(/N=C/c1ccc(C(=O)O)cc1)C1=NCCCCN1    > 100 µM
3  O=C(/C=C/c1ccc(O)c(O)c1)OCC(OC(=O)/C=C/c1ccc(O)c(O)c1)C(=O)O (stereo not given)    > 100 µM
4  COc1cccc2c1C(=N)c1c(O)c3c(c(O)c1C2=O)C[C@@](O)(C(C)=O)C[C@@H]3O[C@H]1C[C@H](N)[C@H](O)[C@H](C)O1     18.2 µM

Input: Suppose we examine the compound O=C(O)CSCCc1ccccc1 ; what TGI value has been reported?
Output: > 100 µM

Input: Suppose we examine the compound OC(CNc1ccccn1)c1ccccc1 (stereo not given) ; what TGI value has been reported?
Output: > 100 µM

Data provenance is PubChem BioAssay (NCI).
